The reported measurements were obtained from patent US7132431B2.

system: K1 strain of P. falciparum (chloroquine resistant); test: In vitro antimalarial activity, 48-h [3H]-hypoxanthine incorporation assay, K1 strain; assay type: cell-based, Plasmodium falciparum; settings: Plasmodium falciparum, K1, read-out: IC50 nM
assay metric: IC50

Fill in: IC50 of CCN(CC)CCCC(C)Nc1ccnc2cc(Cl)ccc12 (stereo not shown) [Chloroquine, chloroquine, reference compound] is ___
190 to 250 nM
